Assay: Degradation test by human blood plasma, MALDI-TOFMS analysis
Format: in vitro ADME
Conditions: 50% by mass human blood plasma; 20 min; read-out: degradation resistance (proportion of the peptide retained without degradation)
Protocol: […] Each of the peptides described above was added to human blood plasma having a concentration of 50% by mass, the resulting mixture was sampled immediately after starting the degradation test (after 0 minutes), and then after 5 minutes, after 10 minutes, after 20 minutes, after 30 minutes, after 60 minutes and after 120 minutes, and the samples were analyzed by MALDI-TOFMS. […]
Residues, ends and D or L forms follow the SMILES beside them. *: point of attachment. 5FAM = O=C1OC2(c3ccc(O)cc3Oc3cc(O)ccc32)c2ccc(C(=O)*)cc21
MEASURE NAME: remaining at 20 min (%)
Answer with a number only, understood to be in %.

Sample C[C@@H](O)[C@H](NC(=O)[C@@H](NC(=O)[C@@H]1CCCN1C(=O)[C@H](CCCNC(=N)N)NC(=O)[C@H](CCCNC(=N)N)NC(=O)c1ccc2c(c1)C(=O)OC21c2ccc(O)cc2Oc2cc(O)ccc21)[C@@H](C)O)C(=O)N[C@@H](Cc1c[nH]c2ccccc12)C(=O)N[C@@H](Cc1c[nH]cn1)C(=O)N[C@@H](CCCCN)C(=O)N1CCC[C@H]1C(=O)O [compound 13] (5FAM-RRPTTWHKP-OH; C-terminus assumed) ; remaining at 20 min observed: 92
